molecular target: UniProtKB P29371; experiment: Signal transduction (ST), intracellular Ca++ (FLIPR), NK3; assay type: cell-based; settings: read-out: pIC50 NK3 (converted)
Sequence (P29371 whole entry): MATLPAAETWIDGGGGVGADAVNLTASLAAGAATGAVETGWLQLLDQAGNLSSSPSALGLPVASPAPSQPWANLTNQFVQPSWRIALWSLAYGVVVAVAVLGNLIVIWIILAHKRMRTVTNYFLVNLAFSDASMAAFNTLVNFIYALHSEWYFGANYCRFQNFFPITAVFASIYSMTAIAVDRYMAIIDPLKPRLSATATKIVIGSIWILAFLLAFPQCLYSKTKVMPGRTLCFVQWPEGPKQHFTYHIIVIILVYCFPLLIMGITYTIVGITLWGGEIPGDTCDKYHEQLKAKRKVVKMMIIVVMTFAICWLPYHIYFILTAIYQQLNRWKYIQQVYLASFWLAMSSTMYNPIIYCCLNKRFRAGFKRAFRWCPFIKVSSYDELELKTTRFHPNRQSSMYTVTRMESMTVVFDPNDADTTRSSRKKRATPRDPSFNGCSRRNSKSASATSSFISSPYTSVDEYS
Listing: log10(IC50) of selected compounds
Response schema: value (number) is log10 of IC50 in units of µM.

// known answers, use as guide
- compound: "O=C(C1CCCCC1)N1CC[C@@H](N2CCN([C@H]3CCN(C(=O)c4cc(C(F)(F)F)cc(C(F)(F)F)c4)[C@H](Cc4ccc(Cl)c(Cl)c4)C3)CC2)C1"
  testedSystem: "UniProtKB P29371"
  log10(IC50): -0.10
- compound: "COc1ccc(Cl)cc1S(=O)(=O)N1CCC(N2CCN([C@H]3CCN(C(=O)c4cc(C(F)(F)F)cc(C(F)(F)F)c4)[C@H](Cc4ccccc4)C3)CC2)C1 (stereo partly shown)"
  testedSystem: "UniProtKB P29371"
  log10(IC50): 0.70
- compound: "Cn1ccc(C(=O)N2CCC(N3CCN([C@H]4CCN(C(=O)c5cc(C(F)(F)F)cc(C(F)(F)F)c5)[C@H](Cc5ccccc5)C4)CC3)C2)c1 (stereo partly shown)"
  testedSystem: "UniProtKB P29371"
  log10(IC50): -0.30
- compound: "O=C(c1ccoc1)N1CC[C@H](N2CCN([C@H]3CCN(C(=O)c4cc(C(F)(F)F)cc(C(F)(F)F)c4)[C@H](Cc4ccc(Cl)c(Cl)c4)C3)CC2)C1"
  testedSystem: "UniProtKB P29371"
  log10(IC50): -0.30
- compound: "CC(C(=O)N1CCC(N2CCN([C@H]3CCN(C(=O)c4cc(C(F)(F)F)cc(C(F)(F)F)c4)[C@H](Cc4ccccc4)C3)CC2)C1)c1ccccc1 (stereo partly shown)"
  testedSystem: "UniProtKB P29371"
  log10(IC50): -0.30

Turning now to a further record.
[ask] // lookup log10(IC50) for O=C(c1snnc1CO)N1CCC(N2CCN(C3CCN(C(=O)c4cc(C(F)(F)F)cc(C(F)(F)F)c4)C(Cc4ccccc4)C3)CC2)C1 (stereo not shown)
[reply] 0.20

* * *

Recorded log10 IC50, one value per entry.
Biological target: NK2 (Homo sapiens, UniProt P21452)
Sequence (P21452 whole entry): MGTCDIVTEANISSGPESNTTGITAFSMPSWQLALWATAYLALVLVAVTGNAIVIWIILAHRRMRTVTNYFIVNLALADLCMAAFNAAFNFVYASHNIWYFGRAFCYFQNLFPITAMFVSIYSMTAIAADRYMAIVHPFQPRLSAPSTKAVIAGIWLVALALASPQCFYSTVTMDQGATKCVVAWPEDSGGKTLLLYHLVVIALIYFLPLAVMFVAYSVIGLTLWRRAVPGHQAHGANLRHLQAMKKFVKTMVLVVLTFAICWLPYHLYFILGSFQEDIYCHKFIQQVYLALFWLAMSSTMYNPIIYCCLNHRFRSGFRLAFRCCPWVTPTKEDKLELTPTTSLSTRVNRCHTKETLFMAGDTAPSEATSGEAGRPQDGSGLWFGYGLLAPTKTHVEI
Assay: Signal transduction (ST), intracellular Ca++ (FLIPR), NK2
Type: cell-based
Conditions: read-out: pIC50 NK2 (converted)
Experimental: [The procedure below names another target; the source lists this target under the same test.] This test evaluates in vitro functional NK1 antagonistic activity. For the measurements of intracellular Ca^++ concentrations the cells were grown on 96-well (black wall/transparent bottom) plates from Costar for 2 days until they reached confluence. […] The cells were preincubated with a concentration range of antagonists for 20 min at RT and Ca^++-signals after addition of the agonists were measured in a Fluorescence Image Plate Reader (FLIPR from Molecular Devices, Crawley, England). […]
Kindly note that the scale is log10 and the underlying IC50 is in nM.

[ask] Given the compound COc1ccc(C(O)C(=O)N2CCC(N3CCN([C@H]4CCN(C(=O)c5cc(C(F)(F)F)cc(C(F)(F)F)c5)[C@H](Cc5ccccc5)C4)CC3)C2)cc1 (some centres unmarked) [Compound 333] , what is its reported log10 IC50?
[reply] 3.40

[ask] Item under review: O=C(C1CCCCC1)N1CCC(N2CCN(C3CCN(C(=O)c4cc(C(F)(F)F)cc(C(F)(F)F)c4)C(Cc4ccc(F)c(F)c4)C3)CC2)C1 (single isomer, unassigned) [Compound 357] . Reported log10 IC50?
[reply] 3.50

[ask] Quick one: log10 IC50 for Cc1nc(S(=O)(=O)N2CCC(N3CCN([C@H]4CCN(C(=O)c5cc(C(F)(F)F)cc(C(F)(F)F)c5)[C@H](Cc5ccccc5)C4)CC3)C2)cn1C (some centres unmarked) [Compound 78] ?
[reply] 2.60

[ask] Need log10 IC50 of O=C(c1ccccc1Cl)N1CC[C@H](N2CCN([C@H]3CCN(C(=O)c4cc(C(F)(F)F)cc(C(F)(F)F)c4)[C@H](Cc4ccc(Cl)c(Cl)c4)C3)CC2)C1 [Compound 315] , thanks.
[reply] 2.70

[ask] log10 IC50 lookup needed for O=C(C1CCOC1)N1CCC(N2CCN(C3CCN(C(=O)c4cc(C(F)(F)F)cc(C(F)(F)F)c4)C(Cc4ccc(F)c(F)c4)C3)CC2)C1 (single isomer, unassigned) [Compound 285] , thanks.
[reply] 3.50

[ask] Value lookup for log10 IC50; key = O=C(c1cnccn1)N1CC[C@@H](N2CCN([C@H]3CCN(C(=O)c4cc(C(F)(F)F)cc(C(F)(F)F)c4)[C@H](Cc4ccc(Cl)c(Cl)c4)C3)CC2)C1 [Compound 286]
[reply] 3.00

[ask] // query log10 IC50 value for entry COc1ccccc1C(=O)N1CCC(N2CCN([C@H]3CCN(C(=O)c4cc(C(F)(F)F)cc(C(F)(F)F)c4)[C@H](Cc4ccccc4)C3)CC2)C1 (some centres unmarked) [Compound 14]
[reply] 3.70

[ask] # get_value(readout='log10 IC50', item= COc1cccc(NC(=O)N2CCC(N3CCN(C4CCN(C(=O)c5cc(C(F)(F)F)cc(C(F)(F)F)c5)C(Cc5ccccc5)C4)CC3)C2)c1 (centres unmarked) [Compound 343] )
[reply] 3.50
